Test system: SK-MEL-2
Test: NCI tumour cell line growth inhibition, 48 h
Activity calls are given as the source filed them. Rule as the data show it: active = GI50 up to about 1.1 µM and inactive = higher.
VALUE_KIND: GI50

Below: 5 compounds and their reported GI50.
O=[N+]([O-])c1cc2ccc(N(CCO)CCO)nc2nc1N(CCO)CCO    > 100 µM (inactive)
O=C1CC(=O)NC(NN2C(=O)/C(=C/c3ccccc3)N=C2c2ccccc2)=N1    > 100 µM (inactive)
COC(=O)/C(=N\O)C(C(=O)C=C(C)C)C(=O)C(=O)Nc1ccccc1C (stereo not drawn)    > 100 µM (inactive)
CN1C(=O)CN2C(Cl)(Cl)C2(c2ccccc2F)c2cc([N+](=O)[O-])ccc21 (stereo not drawn)    38.2 µM (inactive)
CCOC(=O)C1=C(C)N(c2ccc(Cl)cc2)C2(O)C=CC(O)=C3C(=O)c4ccccc4C(=O)C312 (stereo not drawn)    4.32 µM (inactive)

Value (GI50, SK-MEL-2) for record "CC1=C(Cl)C[C@@H](/C(C)=C\Cl)O[C@@]1(O)C(Br)Br" = 28.4 µM (inactive)

Value (GI50, SK-MEL-2) for record "Cc1c(C)n(COCCO)c2ncnc(N)c12" = > 100 µM (inactive)

Value (GI50, SK-MEL-2) for record "COc1cc2c(cc1OCCN1CCN(CCOc3cc4c(cc3OC)C(=O)N3CCC[C@H]3C=N4)CC1)N=C[C@@H]1CCCN1C2=O" = 26 µM (inactive)
